system: Human immunodeficiency virus 1; test: Anti-HIV activity against wild type HIV-1 IIIB infected in human MT4 cells assessed as inhibition of virus-induced cytopathic effect by MTT assay; type: functional, organism-based; settings: Human immunodeficiency virus 1, IIIB
Readout type: EC50

CCc1c(C(N=[N+]=[N-])c2ccc(F)cc2)nc(SC(C)C)[nH]c1=O (stereo not given)
380 nM
Cc1cc(C)cc(C(N=[N+]=[N-])c2nc(SC(C)C)[nH]c(=O)c2C)c1 (stereo not given)
53 nM
CCc1c(C(N=[N+]=[N-])c2ccc(-c3ccccc3)cc2)nc(SC(C)C)[nH]c1=O (stereo not given)
> 308000 nM

Batch request: EC50 for each of the following compounds.
1. CCc1c(C(N=[N+]=[N-])c2ccc(C)cc2)nc(SC(C)C)[nH]c1=O (stereo not given)
2. CC(C)Sc1nc(C(N=[N+]=[N-])c2ccccc2)c(C(C)C)c(=O)[nH]1 (stereo not given)

1. 160 nM
2. 470 nM
